Experiment: Tanguay_ZF_120hpf_AXIS_legacy: (Legacy) Oregon State University Tanguay Lab 120 Hour Post-fertilization zebrafish Assay for Body Axis Malformation (AID 2283635)
Results filed as inconclusive are left out. The source made the active and inactive calls. Rule for the calls: active = hit-call score of the fitted dose curve at least 0.9, where 1 is the maximum; inconclusive = response in the unintended direction; inactive = score below 0.9.
Your reply should match one of these outcome classes. Y for active, N for inactive

Query string: Given COc1ccc(C(c2ccc(OC)cc2)C(Cl)(Cl)Cl)cc1 , state the outcome it received in this test.
Result string: N

Query string: And the next one, COC(=O)c1ccccc1C(=O)OC ?
Result string: N

Query string: And the next one, O=C(O)COc1nc(Cl)c(Cl)cc1Cl ?
Result string: N

Query string: And the next one, C=CC1(C)OC(=O)N(c2cc(Cl)cc(Cl)c2)C1=O (configuration not stated) ?
Result string: N

Query string: And the next one, Cc1c(F)c(F)c(COC(=O)C2C(/C=C(\Cl)C(F)(F)F)C2(C)C)c(F)c1F (configuration not stated) ?
Result string: Y

Query string: And the next one, N#CC(CCc1ccc(Cl)cc1)(Cn1cncn1)c1ccccc1 (configuration not stated) ?
Result string: N

Query string: And the next one, COc1cnc(OC)n2nc(NS(=O)(=O)c3c(OCC(F)F)cccc3C(F)(F)F)nc12 ?
Result string: N

Query string: And the next one, N#Cc1cc(Br)c(O)c(Br)c1 ?
Result string: N

Query string: And the next one, Cc1ccc(-c2c(Cl)nc(C#N)n2S(=O)(=O)N(C)C)cc1 ?
Result string: N

Query string: And the next one, COc1nc(NC(C)C)nc(NC(C)C)n1 ?
Result string: N

Query string: And the next one, CON(C)C(=O)Nc1ccc(Cl)c(Cl)c1 ?
Result string: N

Query string: And the next one, COC(=O)C=C(C)OP(=O)(OC)OC ?
Result string: N

Query string: And the next one, CCc1nn(C)c(C(=O)NCc2ccc(C(C)(C)C)cc2)c1Cl ?
Result string: N

Query string: And the next one, CC(Oc1ccc(Cl)cc1Cl)C(=O)O (configuration not stated) ?
Result string: N

Query string: And the next one, CCNc1nc(Cl)nc(NCC)n1 ?
Result string: N

Query string: And the next one, Fc1ccc(Oc2ccnc3cc(Cl)cc(Cl)c23)cc1 ?
Result string: N

Query string: And the next one, C#CCOS(=O)OC1CCCCC1Oc1ccc(C(C)(C)C)cc1 (configuration not stated) ?
Result string: N

Query string: And the next one, CCCN(CCC)c1c([N+](=O)[O-])cc(S(N)(=O)=O)cc1[N+](=O)[O-] ?
Result string: N

Query string: And the next one, O=C(O)c1nc(Cl)ccc1Cl ?
Result string: N

Query string: And the next one, COC(=O)C(C)Oc1ccc(Oc2ccc(Cl)cc2Cl)cc1 (configuration not stated) ?
Result string: N

Query string: And the next one, CCOC(=O)C(Cl)Cc1cc(-n2nc(C)n(C(F)F)c2=O)c(F)cc1Cl (configuration not stated) ?
Result string: Y

Query string: And the next one, CCCCNC(=O)n1c(NC(=O)OC)nc2ccccc21 ?
Result string: N

====

Experiment: BSK_3C_SRB: Viability Assessment in the BioMAP Diversity Plus: 3C Assay (AID 2283023);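 note: cells read 24 h after compound dosing; fitted both ways against DMSO so a hit may be signal rise or drop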
Conditions: primary human endothelial cells (HUVEC)
The source made the active and inactive calls. How the source made its calls: active means hit-call score of the fitted dose curve at least 0.9, where 1 is the maximum; inactive means score below 0.9.
measuredParameter: AC50

Look over these answered cases.
molecule | measuredParameter | result
CCOP(=S)(OCC)SCn1c(=O)oc2cc(Cl)ccc21 | AC50 | 30.2 µM (active)
OC(c1ccc(Cl)cc1)(c1cncnc1)c1ccccc1Cl (stereo not drawn) | AC50 | 26 µM (active)
CCNc1nc(Cl)nc(NC(C)C)n1 | AC50 | inactive
N#CC(CCc1ccc(Cl)cc1)(Cn1cncn1)c1ccccc1 (stereo not drawn) | AC50 | 20 µM (active)
O=C(Nc1ccccc1)Nc1ccnc(Cl)c1 | AC50 | inactive
CC(Oc1ccc(Cl)cc1Cl)C(=O)O (stereo not drawn) | AC50 | inactive
N#Cc1cc(Br)c(O)c(Br)c1 | AC50 | 20 µM (active)
CCOc1cc(Oc2ccc(C(F)(F)F)cc2Cl)ccc1[N+](=O)[O-] | AC50 | 14.1 µM (active)

Query string: What value of AC50 has been recorded for this entry: C=CCC1=C(C)C(OC(=O)C2C(C=C(C)C)C2(C)C)CC1=O (stereo not drawn)
Result string: 32.8 µM (active) [middle of 4 runs]

Query string: And the next one, COC(=O)C=C(C)OP(=O)(OC)OC ?
Result string: inactive

Query string: And the next one, CCOC(=O)C(Cl)Cc1cc(-n2nc(C)n(C(F)F)c2=O)c(F)cc1Cl (stereo not drawn) ?
Result string: inactive

Query string: And the next one, CCCC1COC(Cn2cncn2)(c2ccc(Cl)cc2Cl)O1 (stereo not drawn) ?
Result string: inactive

Query string: And the next one, COc1nc(NC(C)C)nc(NC(C)C)n1 ?
Result string: inactive

====

Test: BSK_4H_SRB: Viability Assessment in the BioMAP Diversity Plus: 4H Assay (AID 2283027);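 note: cells exposed to compound for 24 h before staining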
Conditions: primary human endothelial cells (HUVEC)
Calls of active or inactive are those of the source. The calls were made as follows: active = hit-call score of the fitted dose curve at least 0.9, where 1 is the maximum; inactive = score below 0.9.
Your reply should match one of these outcome classes. active, inactive

Query string: Given CCCCOC(=O)c1ccccc1C(=O)OCCCC , state the outcome it received in this test.
Result string: inactive

Query string: And the next one, CON(C)C(=O)Nc1ccc(Cl)c(Cl)c1 ?
Result string: inactive

Query string: And the next one, CCOc1cc(Oc2ccc(C(F)(F)F)cc2Cl)ccc1[N+](=O)[O-] ?
Result string: inactive

Query string: And the next one, Fc1ccc(Oc2ccnc3cc(Cl)cc(Cl)c23)cc1 ?
Result string: active

Query string: And the next one, CC(C)Oc1cc(-n2nc(C(C)(C)C)oc2=O)c(Cl)cc1Cl ?
Result string: active

Query string: And the next one, O=C(O)COc1nc(Cl)c(Cl)cc1Cl ?
Result string: inactive

Query string: And the next one, Cc1cc(Cl)ccc1OCC(=O)O ?
Result string: inactive

Query string: And the next one, CCCC1COC(Cn2cncn2)(c2ccc(Cl)cc2Cl)O1 (stereo not given) ?
Result string: inactive

Query string: And the next one, COc1nc(NC(C)C)nc(NC(C)C)n1 ?
Result string: inactive

Query string: And the next one, COC(=O)N(OC)c1ccccc1COc1ccn(-c2ccc(Cl)cc2)n1 ?
Result string: active

Query string: And the next one, CCCCNC(=O)n1c(NC(=O)OC)nc2ccccc21 ?
Result string: active

Query string: And the next one, Oc1ccccc1-c1ccccc1 ?
Result string: inactive

Query string: And the next one, CCOC(=O)C(Cl)Cc1cc(-n2nc(C)n(C(F)F)c2=O)c(F)cc1Cl (stereo not given) ?
Result string: inactive

Query string: And the next one, CCOP(=S)(OCC)SCn1c(=O)oc2cc(Cl)ccc21 ?
Result string: inactive

Query string: And the next one, CCON=C(CC)C1=C(O)CC(c2c(C)cc(C)cc2C)CC1=O (stereo not given) ?
Result string: inactive

====

Experiment: ATG_DR4_LXR_CIS: Attagene CIS-FACTORIAL HepG2 Assay for human Liver X Receptor (LXR), DR4 submotif (AID 2282929)
Conditions: HepG2 Attagene DR4 cis-reporter, mRNA transcription; actives raise or lower the signal
Calls of active or inactive are those of the source. The calls were made as follows: active = hit-call score of the fitted dose curve at least 0.9, where 1 is the maximum; inactive = score below 0.9.
Your reply should match one of these outcome classes. True (active), False (inactive)

Query string: Given CNC(=O)ON=CC(C)(C)SC , state the outcome it received in this test.
Result string: False

Query string: And the next one, COC(=O)C(C)Oc1ccc(Oc2ccc(Cl)cc2Cl)cc1 (configuration not stated) ?
Result string: False

Query string: And the next one, COP(=S)(OC)Oc1nc(Cl)c(Cl)cc1Cl ?
Result string: True

Query string: And the next one, CC(C)Oc1cc(-n2nc(C(C)(C)C)oc2=O)c(Cl)cc1Cl ?
Result string: False

Query string: And the next one, Fc1ccc(Oc2ccnc3cc(Cl)cc(Cl)c23)cc1 ?
Result string: True

Query string: And the next one, COc1nc(C)nc(NC(=O)NS(=O)(=O)c2ccccc2CCC(F)(F)F)n1 ?
Result string: False

Query string: And the next one, COc1nc(C)nc(NC(=O)NS(=O)(=O)c2ccccc2Cl)n1 ?
Result string: False

====

Read-out: Matrix Metallopeptidase 1 (MMP1), MMP1 (gene 4312)
Assay: BSK_hDFCGF_MMP1: BioMAP Diversity Plus: hDFCGF Assay for Matrix Metallopeptidase 1 (MMP1) Biomarker Activity (AID 2283064)
Settings: primary human foreskin fibroblasts; actives raise or lower the signal
Activity calls are given as the source filed them. Rule for the calls: active = hit-call score of the fitted dose curve at least 0.9, where 1 is the maximum; inactive = score below 0.9.
Your reply should match one of these outcome classes. active, inactive

Query string: Given COc1cnc(OC)n2nc(NS(=O)(=O)c3c(OCC(F)F)cccc3C(F)(F)F)nc12 , state the outcome it received in this test.
Result string: inactive

Query string: And the next one, CCNc1nc(Cl)nc(NCC)n1 ?
Result string: inactive

Query string: And the next one, COC(=O)c1ccccc1C(=O)OC ?
Result string: inactive

Query string: And the next one, CCCCOC(=O)c1ccccc1C(=O)OCCCC ?
Result string: inactive

Query string: And the next one, N#CC(CCc1ccc(Cl)cc1)(Cn1cncn1)c1ccccc1 (stereo unspecified) ?
Result string: inactive

Query string: And the next one, COc1nc(C)nc(NC(=O)NS(=O)(=O)c2ccccc2Cl)n1 ?
Result string: inactive

Query string: And the next one, CC1COC(Cn2cncn2)(c2ccc(Oc3ccc(Cl)cc3)cc2Cl)O1 (stereo unspecified) ?
Result string: active

Query string: And the next one, COC(=O)N(OC)c1ccccc1COc1ccn(-c2ccc(Cl)cc2)n1 ?
Result string: active

Query string: And the next one, C=CC1(C)OC(=O)N(c2cc(Cl)cc(Cl)c2)C1=O (stereo unspecified) ?
Result string: inactive

Query string: And the next one, N#Cc1nn(-c2c(Cl)cc(C(F)(F)F)cc2Cl)c(N)c1S(=O)C(F)(F)F (stereo unspecified) ?
Result string: inactive

Query string: And the next one, O=C(O)c1nc(Cl)ccc1Cl ?
Result string: inactive
